Target: HiBit-BRG1 fusion protein (Homo sapiens)
Construct: expressed in transfected cells
Assay: HiBiT-BRG1 cell-based degradation assay (Nano-Glo HiBiT lytic detection, 24 h)
Conditions: HeLa cell line expressing HiBit-BRG1 and LgBit, read-out: BRMG1 HiBit Degradation IC50
experimental-endpoint: DC50

Some solved cases for reference:
| molecule | measurement-target | measured |
| --- | --- | --- |
| Cc1ncsc1-c1ccc([C@H](C)NC(=O)[C@@H]2C[C@@H](O)CN2C(=O)[C@@H](c2cc(N3C[C@@H]4C(c5cc6nnc(-c7ccccc7O)cc6n5C5CC5)[C@H]4C3)no2)C(C)C)cc1 (some centres unmarked) | HiBit-BRG1 fusion protein (Homo sapiens) | > 10 nM |
| Cc1ncsc1-c1ccc([C@H](C)NC(=O)[C@@H]2C[C@@H](O)CN2C(=O)[C@@H](c2cc(N3CCC4(CC3)CC(c3cc5nnc(-c6ccccc6O)cc5n3C)C4)no2)C(C)C)cc1 | HiBit-BRG1 fusion protein (Homo sapiens) | > 10 nM |
| Cc1ncsc1-c1ccc([C@H](C)NC(=O)[C@@H]2C[C@@H](O)CN2C(=O)[C@@H](c2cc(N3CC[C@H](c4cc5nnc(-c6ccccc6O)cc5n4C4(C)CC4)C3)no2)C(C)C)cc1 | HiBit-BRG1 fusion protein (Homo sapiens) | > 10 nM |
| Cc1ncsc1-c1ccc([C@H](C)NC(=O)[C@@H]2C[C@@H](O)CN2C(=O)[C@@H](c2cc(-c3cnc(N4CC[C@@H](c5cc6nnc(-c7ccccc7O)cc6n5C5(C)CC5)C4)nc3)no2)C(C)C)cc1 | HiBit-BRG1 fusion protein (Homo sapiens) | < 10 nM |

// moving on: another record for DC50
# input What does the record list as DC50 for Cc1ncsc1-c1ccc([C@H](C)NC(=O)[C@@H]2C[C@@H](O)CN2C(=O)[C@@H](c2cc(-c3cnc(N4CC[C@@H](c5cc6nnc(-c7ccccc7O)cc6n5CC5CC5)C4)nc3)no2)C(C)C)cc1 ?
# output > 10 nM

###

Biological target: HiBit-BRM fusion protein (Homo sapiens)
Construct: expressed in transfected cells
Test: HiBiT-BRM cell-based degradation assay (Nano-Glo HiBiT lytic detection, 24 h)
Details: HeLa cell line expressing HiBiT-BRM, read-out: BRM HiBit Degradation IC50
DC50 listing for selected molecules.

| molecule | measurement-target | DC50 |
| --- | --- | --- |
| Cc1ncsc1-c1ccc([C@H](C)NC(=O)[C@@H]2C[C@@H](O)CN2C(=O)[C@@H](c2cc(N3CC4(CC(c5cc6nnc(-c7ccccc7O)cc6n5C5CC5)C4)C3)no2)C(C)C)cc1 [Compound 78] | HiBit-BRM fusion protein (Homo sapiens) | < 10 nM |

# input What does the record list as DC50 for CCn1c(C2CCN(c3ncc(-c4cc([C@@H](C(=O)N5C[C@H](O)C[C@H]5C(=O)N[C@@H](C)c5ccc(-c6scnc6C)cc5)C(C)C)on4)cn3)CC2)cc2nnc(-c3ccccc3O)cc21 [Compound 24] ?
# output > 10 nM

###

Biological target: HiBit-BRM fusion protein (Homo sapiens, UniProt P51531)
Construct: expressed in transfected cells
Sequence (P51531 whole entry, the tested form may be a part): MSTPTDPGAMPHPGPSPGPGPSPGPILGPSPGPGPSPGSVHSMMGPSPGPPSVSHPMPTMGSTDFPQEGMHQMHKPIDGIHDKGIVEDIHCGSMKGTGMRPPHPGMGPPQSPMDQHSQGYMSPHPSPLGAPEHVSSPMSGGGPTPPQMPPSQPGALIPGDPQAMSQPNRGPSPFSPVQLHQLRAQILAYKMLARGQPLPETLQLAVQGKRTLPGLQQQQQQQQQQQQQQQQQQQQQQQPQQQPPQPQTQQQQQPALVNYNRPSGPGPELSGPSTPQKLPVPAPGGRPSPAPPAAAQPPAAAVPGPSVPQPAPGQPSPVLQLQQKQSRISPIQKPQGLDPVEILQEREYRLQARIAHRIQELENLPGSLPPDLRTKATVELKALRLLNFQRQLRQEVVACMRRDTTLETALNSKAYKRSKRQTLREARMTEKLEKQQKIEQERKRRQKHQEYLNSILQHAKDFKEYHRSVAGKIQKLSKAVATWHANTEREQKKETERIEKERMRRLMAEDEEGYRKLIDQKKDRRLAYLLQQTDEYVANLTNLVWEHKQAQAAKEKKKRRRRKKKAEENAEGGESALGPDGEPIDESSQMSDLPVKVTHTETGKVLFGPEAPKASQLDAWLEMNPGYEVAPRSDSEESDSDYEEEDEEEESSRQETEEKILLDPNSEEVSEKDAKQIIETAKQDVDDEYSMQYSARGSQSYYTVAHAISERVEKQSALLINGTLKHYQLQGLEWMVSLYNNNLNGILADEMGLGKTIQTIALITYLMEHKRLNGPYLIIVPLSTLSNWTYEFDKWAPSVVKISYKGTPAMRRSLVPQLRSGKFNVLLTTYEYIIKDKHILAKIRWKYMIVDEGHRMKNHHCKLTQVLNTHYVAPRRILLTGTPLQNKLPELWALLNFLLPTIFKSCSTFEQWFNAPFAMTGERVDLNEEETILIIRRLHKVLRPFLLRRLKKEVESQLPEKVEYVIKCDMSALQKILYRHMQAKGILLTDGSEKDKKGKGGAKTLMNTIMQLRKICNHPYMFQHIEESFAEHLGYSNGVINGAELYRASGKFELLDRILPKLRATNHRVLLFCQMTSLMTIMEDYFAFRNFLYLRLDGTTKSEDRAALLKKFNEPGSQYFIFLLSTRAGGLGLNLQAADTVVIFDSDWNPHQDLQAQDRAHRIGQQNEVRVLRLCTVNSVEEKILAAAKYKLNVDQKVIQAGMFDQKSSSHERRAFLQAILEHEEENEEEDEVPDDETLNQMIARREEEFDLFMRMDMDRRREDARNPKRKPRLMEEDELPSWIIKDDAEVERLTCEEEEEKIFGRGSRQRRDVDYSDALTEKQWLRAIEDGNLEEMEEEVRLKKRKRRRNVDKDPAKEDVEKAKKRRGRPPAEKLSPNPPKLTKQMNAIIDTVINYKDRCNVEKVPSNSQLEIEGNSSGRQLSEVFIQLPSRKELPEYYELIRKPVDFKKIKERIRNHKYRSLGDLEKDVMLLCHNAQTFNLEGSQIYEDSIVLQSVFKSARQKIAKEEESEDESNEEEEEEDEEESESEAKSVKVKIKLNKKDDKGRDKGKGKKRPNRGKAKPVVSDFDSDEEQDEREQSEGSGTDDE
Assay: HiBiT-BRM cell-based degradation assay (Nano-Glo HiBiT lytic detection, 24 h)
Conditions: HeLa cell line expressing HiBiT-BRM, read-out: BRM HiBit Degradation IC50
Protocol: Procedure: A stable HeLa cell line expressing HiBiT-BRM was generated. On day 0, 5000 cells were seeded in 40 μL of media into each well of 384-well cell culture plates. […] The plates were shaken for 10 minutes at room temperature and the bioluminescence read using an EnVision plate reader (PerkinElmer). The degradation % was calculated using the following formula: % degradation=100%−100%×(Lumsample−LuMLC)/(LuMHC−LuMLC). […]
experimental-endpoint: DC50

Some solved cases for reference:
| smiles-notation | DC50 |
| --- | --- |
| Cc1ncsc1-c1ccc(CNC(=O)[C@@H]2C[C@@H](O)CN2C(=O)[C@@H](c2cc(N3CCC4(CC3)CC(c3cc5nnc(-c6ccccc6O)cc5n3C3CC3)C4)no2)C(C)C)cc1 | < 10 nM |
| Cc1ncsc1-c1ccc([C@H](C)NC(=O)[C@@H]2C[C@@H](O)CN2C(=O)[C@@H](c2cc(N3CCC4(CCC(c5cc6nnc(-c7ccccc7O)cc6n5C5CC5)CC4)CC3)no2)C(C)C)cc1 | < 10 nM |
| Cc1ncsc1-c1ccc([C@H](C)NC(=O)[C@@H]2C[C@@H](O)CN2C(=O)[C@H](c2cc(-c3cnc(N4CCC(c5cc6nnc(-c7ccccc7O)cc6[nH]5)CC4)nc3)no2)C(C)C)cc1 | > 10 nM |
| Cc1ncsc1-c1ccc([C@H](C)NC(=O)[C@@H]2C[C@@H](O)CN2C(=O)[C@@H](c2cc(-c3cnc(N4CC[C@@H](c5cc6nnc(-c7cccc(F)c7O)cc6n5C5CC5)C4)nc3)no2)C(C)C)cc1 | > 10 nM |

# input What does the record list as DC50 for Cc1ncsc1-c1ccc([C@H](C)NC(=O)[C@@H]2C[C@@H](O)CN2C(=O)[C@@H](c2cc(-c3cnc(N4CC5(CC(c6cc7nnc(-c8ccccc8O)cc7n6C6CCC6)C5)C4)nc3)no2)C(C)C)cc1 ?
# output < 10 nM

###

Dmax listing for selected compounds.
Molecular target: HiBit-BRG1 fusion protein (Homo sapiens, UniProt P51532)
Construct: expressed in transfected cells
Sequence (P51532 whole entry, the tested form may be a part): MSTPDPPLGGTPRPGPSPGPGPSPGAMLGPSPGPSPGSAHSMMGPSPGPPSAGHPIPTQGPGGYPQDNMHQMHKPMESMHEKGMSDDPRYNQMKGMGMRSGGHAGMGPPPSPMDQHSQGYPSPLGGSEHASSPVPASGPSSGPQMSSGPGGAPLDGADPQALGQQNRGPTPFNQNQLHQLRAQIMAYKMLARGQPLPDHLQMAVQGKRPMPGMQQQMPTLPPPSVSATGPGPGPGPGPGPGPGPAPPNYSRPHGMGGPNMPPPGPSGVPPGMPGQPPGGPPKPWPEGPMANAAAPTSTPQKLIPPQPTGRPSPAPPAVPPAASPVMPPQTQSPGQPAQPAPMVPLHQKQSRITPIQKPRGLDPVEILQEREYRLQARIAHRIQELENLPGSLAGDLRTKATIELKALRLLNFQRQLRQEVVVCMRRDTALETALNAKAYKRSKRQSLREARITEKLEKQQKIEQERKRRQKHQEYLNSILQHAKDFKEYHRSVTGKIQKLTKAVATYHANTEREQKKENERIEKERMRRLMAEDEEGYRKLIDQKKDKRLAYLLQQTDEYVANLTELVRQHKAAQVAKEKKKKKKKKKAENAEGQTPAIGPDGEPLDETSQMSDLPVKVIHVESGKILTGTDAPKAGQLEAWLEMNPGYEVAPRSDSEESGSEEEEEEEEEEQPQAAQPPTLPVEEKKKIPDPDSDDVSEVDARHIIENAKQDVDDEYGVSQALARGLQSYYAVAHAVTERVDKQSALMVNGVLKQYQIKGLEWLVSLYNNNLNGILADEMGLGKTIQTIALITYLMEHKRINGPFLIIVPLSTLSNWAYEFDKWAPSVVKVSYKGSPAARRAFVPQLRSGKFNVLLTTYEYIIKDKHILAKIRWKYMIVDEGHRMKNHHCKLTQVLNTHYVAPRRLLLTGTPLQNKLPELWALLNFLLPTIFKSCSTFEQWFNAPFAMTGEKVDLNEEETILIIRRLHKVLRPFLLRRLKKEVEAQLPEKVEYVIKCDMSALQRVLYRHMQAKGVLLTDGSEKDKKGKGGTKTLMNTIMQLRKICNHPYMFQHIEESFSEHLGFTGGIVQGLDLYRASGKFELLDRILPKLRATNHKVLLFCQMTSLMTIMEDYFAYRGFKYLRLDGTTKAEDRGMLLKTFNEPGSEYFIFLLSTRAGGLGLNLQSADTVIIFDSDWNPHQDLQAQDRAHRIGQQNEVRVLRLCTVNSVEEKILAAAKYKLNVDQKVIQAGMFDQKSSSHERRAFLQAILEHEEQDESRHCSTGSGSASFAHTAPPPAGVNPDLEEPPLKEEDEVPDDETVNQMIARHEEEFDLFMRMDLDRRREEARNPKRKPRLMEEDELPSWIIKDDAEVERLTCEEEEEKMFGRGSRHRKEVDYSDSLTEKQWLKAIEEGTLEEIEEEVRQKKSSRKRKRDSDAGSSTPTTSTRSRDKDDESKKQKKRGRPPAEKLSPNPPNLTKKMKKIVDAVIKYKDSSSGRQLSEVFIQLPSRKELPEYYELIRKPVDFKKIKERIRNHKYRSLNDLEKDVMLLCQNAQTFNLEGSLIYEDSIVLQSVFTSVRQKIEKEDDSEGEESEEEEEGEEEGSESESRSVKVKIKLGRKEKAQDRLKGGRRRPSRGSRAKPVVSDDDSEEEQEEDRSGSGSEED
Assay: HiBiT-BRG1 cell-based degradation assay (Nano-Glo HiBiT lytic detection, 24 h)
Conditions: HeLa cell line expressing HiBit-BRG1 and LgBit, read-out: BRG1 HiBit Degradation Maximum (%)

| compound | measured |
| --- | --- |
| Cc1ncsc1-c1ccc([C@H](C)NC(=O)[C@@H]2C[C@@H](O)CN2C(=O)[C@@H](c2cc(N3CC[C@H](c4cc5nnc(-c6ccccc6O)cc5n4C4(C)CC4)C3)no2)C(C)C)cc1 [Compound 80] | > 75% |

# input What does the record list as Dmax for Cc1ncsc1-c1ccc([C@H](C)NC(=O)[C@@H]2C[C@@H](O)CN2C(=O)[C@@H](c2cc(N3CC4(CC(c5cc6nnc(-c7ccccc7O)cc6n5C5CCC5)C4)C3)no2)C(C)C)cc1 [Compound 105] ?
# output < 50%

# input Similarly, Cc1ncsc1-c1ccc([C@H](C)NC(=O)[C@@H]2C[C@@H](O)CN2C(=O)[C@@H](c2cc(-c3cnc(N4CC[C@@H](c5cc6nnc(-c7cccc(Cl)c7O)cc6n5C5CC5)C4)nc3)no2)C(C)C)cc1 [Compound 69] ?
# output < 50%

# input Similarly, Cc1ncsc1-c1ccc([C@H](C)NC(=O)[C@@H]2C[C@@H](O)CN2C(=O)[C@@H](c2cc(N3CCC[C@H](c4cc5nnc(-c6ccccc6O)cc5n4C4CC4)C3)no2)C(C)C)cc1 [Compound 98] ?
# output > 75%

# input Similarly, Cc1ncsc1-c1ccc(CNC(=O)[C@@H]2C[C@@H](O)CN2C(=O)[C@@H](c2cc(N3CC4(CC(c5cc6nnc(-c7ccccc7O)cc6n5C5CCC5)C4)C3)no2)C(C)C)cc1 [Compound 48] ?
# output < 50%

###

Molecular target: HiBit-BRG1 fusion protein (Homo sapiens)
Construct: expressed in transfected cells
Assay: HiBiT-BRG1 cell-based degradation assay (Nano-Glo HiBiT lytic detection, 24 h)
Conditions: HeLa cell line expressing HiBit-BRG1 and LgBit, read-out: BRG1 HiBit Degradation Maximum (%)
Dmax listing for selected molecules.

Some solved cases for reference:
| molecule | measurement-target | Dmax |
| --- | --- | --- |
| Cc1ncsc1-c1ccc([C@H](C)NC(=O)[C@@H]2C[C@@H](O)CN2C(=O)[C@H](c2cc(-c3cnc(N4CCC(c5cc6nnc(-c7ccccc7O)cc6[nH]5)CC4)nc3)no2)C(C)C)cc1 | HiBit-BRG1 fusion protein (Homo sapiens) | < 50% |
| Cc1ncsc1-c1ccc([C@H](C)NC(=O)[C@@H]2C[C@@H](O)CN2C(=O)[C@@H](c2cc(N3CC[C@H](c4cc5nnc(-c6ccccc6O)cc5n4C4CC4)C3)no2)C(C)C)cc1 | HiBit-BRG1 fusion protein (Homo sapiens) | > 50% |
| Cc1ncsc1-c1ccc([C@H](C)NC(=O)[C@@H]2C[C@@H](O)CN2C(=O)[C@@H](c2cc(OCCN3CC(c4cc5nnc(-c6ccccc6O)cc5n4C(F)F)C3)no2)C(C)C)cc1 | HiBit-BRG1 fusion protein (Homo sapiens) | > 50% |
| Cc1ncsc1-c1ccc([C@H](C)NC(=O)[C@@H]2C[C@@H](O)CN2C(=O)[C@@H](c2cc(-c3cnc(N4CC[C@@H](c5cc6nnc(-c7ccccc7O)cc6n5CC5CC5)C4)nc3)no2)C(C)C)cc1 | HiBit-BRG1 fusion protein (Homo sapiens) | > 75% |
| Cc1ncsc1-c1ccc([C@H](C)NC(=O)[C@@H]2C[C@@H](O)CN2C(=O)[C@@H](c2cc(N3CCC4(CC[C@@H](c5cc6nnc(-c7ccccc7O)cc6n5C5CC5)C4)CC3)no2)C(C)C)cc1 | HiBit-BRG1 fusion protein (Homo sapiens) | < 50% |
| Cc1ncsc1-c1ccc([C@H](C)NC(=O)[C@@H]2C[C@@H](O)CN2C(=O)[C@@H](c2cc(N3CC[C@@H](c4cc5nnc(-c6ccccc6O)cc5n4C4(C)CC4)C3)no2)C(C)C)cc1 | HiBit-BRG1 fusion protein (Homo sapiens) | > 75% |
| Cc1ncsc1-c1ccc([C@H](C)NC(=O)[C@@H]2C[C@@H](O)CN2C(=O)[C@@H](c2cc(-c3cnc(N4CC[C@H](c5cc6nnc(-c7ccccc7O)cc6n5CC5CC5)C4)nc3)no2)C(C)C)cc1 | HiBit-BRG1 fusion protein (Homo sapiens) | > 50% |
| Cc1ncsc1-c1ccc([C@H](C)NC(=O)[C@@H]2C[C@@H](O)CN2C(=O)[C@@H](c2cc(-c3cnc(N4CCC(c5cc6nnc(-c7ccccc7O)cc6n5C5CC5)CC4)nc3)no2)C(C)C)cc1 | HiBit-BRG1 fusion protein (Homo sapiens) | < 50% |

# input What does the record list as Dmax for Cc1ncsc1-c1ccc([C@H](C)NC(=O)[C@@H]2C[C@@H](O)CN2C(=O)[C@@H](c2cc(-c3cnc(N4CC[C@H](c5cc6nnc(-c7cccc(F)c7O)cc6n5C5CC5)C4)nc3)no2)C(C)C)cc1 ?
# output < 50%

The origin of these recorded values is patent US20250302832A1.
